target.or.test.system: Sodium-dependent dopamine transporter (Rattus norvegicus, UniProt P23977)
Sequence (P23977 whole entry): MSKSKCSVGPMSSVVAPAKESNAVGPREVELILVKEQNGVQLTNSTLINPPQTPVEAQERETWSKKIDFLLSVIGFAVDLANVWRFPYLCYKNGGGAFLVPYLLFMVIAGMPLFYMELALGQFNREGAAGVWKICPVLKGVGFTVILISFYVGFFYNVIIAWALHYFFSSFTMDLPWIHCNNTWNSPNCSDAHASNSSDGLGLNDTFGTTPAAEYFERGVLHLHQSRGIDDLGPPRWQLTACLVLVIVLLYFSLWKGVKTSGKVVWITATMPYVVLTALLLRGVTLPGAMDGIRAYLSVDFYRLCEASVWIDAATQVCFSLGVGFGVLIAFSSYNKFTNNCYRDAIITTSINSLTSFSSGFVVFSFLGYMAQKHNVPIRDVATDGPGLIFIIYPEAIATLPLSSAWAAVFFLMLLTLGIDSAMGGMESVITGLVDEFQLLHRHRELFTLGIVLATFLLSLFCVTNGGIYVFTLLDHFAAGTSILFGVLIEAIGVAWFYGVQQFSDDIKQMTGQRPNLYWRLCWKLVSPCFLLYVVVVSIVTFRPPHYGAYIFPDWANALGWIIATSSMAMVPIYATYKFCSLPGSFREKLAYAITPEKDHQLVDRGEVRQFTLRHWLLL
experiment.description: Inhibition of high affinity uptake of [3H]dopamine into nerve endings (synaptosomes) prepared from various regions of the rat brain.
Format: subcellular
pKi: −log10 of the molar value.
Outcome: yes for pKi of at least 6; no for anything lower.

{"columns": ["molecule", "target.or.test.system", "class.assignment"],
 "data": [
  ["CCCC1C2CC[C@H](C[C@@H]1c1ccc(C)cc1)N2C (stereo not given in full)", "Sodium-dependent dopamine transporter (Rattus norvegicus, UniProt P23977)", "yes"]
]}

### Prompt Form field: pKi at least 6? Entry: COC(=O)[C@H]1C2C(O)C[C@H](C[C@@H]1c1ccc(C)cc1)N2C (stereo not given in full)
### Response no

### Prompt // same read-out, input: COC(=O)[C@H]1C2[C@@H](O)C[C@H](C[C@H]1c1ccc(C)cc1)N2C (stereo in doubt; 14b)
### Response no

### Prompt // same read-out, input: COC(=O)[C@@H]1C2C(O)C[C@H](C[C@@H]1c1ccc(C)cc1)N2C (stereo not given in full)
### Response yes
